target: turkey β4C-adrenoceptor (tβ4C) (Meleagris gallopavo); construct: expressed in transfected cells; experiment: cell-based; format: cell-based; settings: CRE-SPAP, % of 10 µM isoprenaline maximum, CHO tβ4C cells
Sequence (P43141 whole entry): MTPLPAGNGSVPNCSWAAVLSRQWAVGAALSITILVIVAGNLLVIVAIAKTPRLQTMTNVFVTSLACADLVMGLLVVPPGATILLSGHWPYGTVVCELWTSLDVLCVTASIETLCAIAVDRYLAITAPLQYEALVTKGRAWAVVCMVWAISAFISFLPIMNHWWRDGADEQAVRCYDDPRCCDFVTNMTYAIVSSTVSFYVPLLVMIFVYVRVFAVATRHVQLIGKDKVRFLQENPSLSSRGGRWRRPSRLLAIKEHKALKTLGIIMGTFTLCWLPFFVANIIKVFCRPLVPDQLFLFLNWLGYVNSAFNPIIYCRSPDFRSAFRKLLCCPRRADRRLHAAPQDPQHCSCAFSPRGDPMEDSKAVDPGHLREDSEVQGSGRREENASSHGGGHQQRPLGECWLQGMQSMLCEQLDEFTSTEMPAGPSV

[
  {
    "molecule": "CNC[C@H](O)c1ccc(O)c(O)c1",
    "tested.target": "turkey β4C-adrenoceptor (tβ4C) (Meleagris gallopavo)",
    "% isop max / %": 99.6
  },
  {
    "molecule": "CC(C)(C)NCC(O)c1cc(Cl)c(N)c(Cl)c1 (stereo not shown)",
    "tested.target": "turkey β4C-adrenoceptor (tβ4C) (Meleagris gallopavo)",
    "% isop max / %": 97.2
  },
  {
    "molecule": "OCc1cc(C(O)CNCCCCCCOCCCCc2ccccc2)ccc1O (stereo not shown)",
    "tested.target": "turkey β4C-adrenoceptor (tβ4C) (Meleagris gallopavo)",
    "% isop max / %": 102.5
  },
  {
    "molecule": "CC(C)NCC(O)c1ccc(N)c(C#N)c1 (stereo not shown)",
    "tested.target": "turkey β4C-adrenoceptor (tβ4C) (Meleagris gallopavo)",
    "% isop max / %": 98.2
  },
  {
    "molecule": "NC[C@H](O)c1ccc(O)c(O)c1",
    "tested.target": "turkey β4C-adrenoceptor (tβ4C) (Meleagris gallopavo)",
    "% isop max / %": 102.3
  },
  {
    "molecule": "C[C@H](Cc1ccc(OCC(=O)O)cc1)NC[C@H](O)c1cccc(Cl)c1",
    "tested.target": "turkey β4C-adrenoceptor (tβ4C) (Meleagris gallopavo)",
    "% isop max / %": 97.1
  },
  {
    "molecule": "CC(CCc1ccc(O)cc1)NCCc1ccc(O)c(O)c1 (stereo not shown)",
    "tested.target": "turkey β4C-adrenoceptor (tβ4C) (Meleagris gallopavo)",
    "% isop max / %": 110.4
  },
  {
    "molecule": "CC(C)(C)NCC(O)COc1cccc2[nH]c(=O)[nH]c12 (stereo not shown)",
    "tested.target": "turkey β4C-adrenoceptor (tβ4C) (Meleagris gallopavo)",
    "% isop max / %": 53.4
  },
  {
    "molecule": "CC(C)NCC(O)c1ccc(O)c(O)c1 (stereo not shown)",
    "tested.target": "turkey β4C-adrenoceptor (tβ4C) (Meleagris gallopavo)",
    "% isop max / %": 100
  },
  {
    "molecule": "CC(C)(C)NCC(O)c1ccc(O)c(CO)c1 (stereo not shown)",
    "tested.target": "turkey β4C-adrenoceptor (tβ4C) (Meleagris gallopavo)",
    "% isop max / %": 99.9
  }
]
